Tested on: MCF7 breast
Experiment: NCI-60 one-dose screen, 48 h
Details: 10 µM unless noted
Compounds without any hit were thinned out: in the full panel of roughly 83,000, 20% have a hit. The source made the active and inactive calls. The calls were made as follows: active = growth percent below 10; inactive = the rest.
Response enum: Y (active), N (inactive)

Cc1ccc(S(=O)(=O)C(Cl)(Cl)Cl)cc1
N
CC(=O)O[C@H]1C(=O)[C@@]2(C)[C@H]([C@H](OC(=O)c3ccccc3)[C@]3(O)C[C@H](OC(=O)[C@H](OC(=O)OC[C@H]4COC(C)(C)O4)[C@@H](NC(=O)c4ccccc4)c4ccccc4)C(C)=C1C3(C)C)[C@]1(OC(C)=O)CO[C@@H]1C[C@@H]2O
Y
CCCCCCCCC(CO)NCCc1ccccc1 (centres undefined)
N
CCOP(=O)(Nc1ccc2c(c1)/C(=N/NC(N)=S)c1ccccc1-2)OCC
N
CC(=O)O[C@@H]1CC[C@]2(C)[C@H]3CC[C@]4(C)C(=O)CC[C@H]4[C@@H]3C[C@@H]3SC(N)=N[C@@]32C1
N
CC1=C(CNO)C2=C(C)C3(CC3)[C@@](C)(O)C(=O)C2=C1
N
O=C1NC(=O)C(=Cc2ccc(OCCCCC3CCCCC3)c(Cl)c2)C(=O)N1
N
N#CCCNc1ccccc1
N

Now for a further compound.
Input: I'd appreciate the recorded outcome for CC12CCC=CC1CCC1C2CCC2(C)C(c3ccc(=O)oc3)CCC12O (centres undefined) from this test.
Output: Y

====

Tested on: RPMI-8226 leukemia
Test: NCI-60 one-dose screen, 48 h (100 = growth as untreated, 0 = no growth, -100 = all killed)
Conditions: 10 µM unless noted
This is part of a sample that, as a whole, favours compounds with a hit. Of some 83,000 tested, about 20% had one in any assay.
Recorded growth, one value per entry.
Expressed in %, but write only the number.

Worked set:
C=C1C(=O)O[C@H]2[C@H]1CC/C(COC(=O)C(=O)c1cn(Cc3ccccc3)c3ccccc13)=C\CC[C@@]1(C)O[C@@H]21
-36.2
O=C1NC(=O)C(=Cc2ccc(OCCCCC3CCCCC3)c(Cl)c2)C(=O)N1
97.7
CCOC(=O)[C@@H](C)C[C@H](Cc1ccccc1)NC(=O)c1csc([C@@H](C[C@H](C(C)C)N(C)C(=O)[C@H](CCC(C)C)NC(=O)[C@H]2CCCCN2C)OC(C)=O)n1
12.6

// below: growth requested for another compound
// growth lookup, compound = `O=C1CN=C(c2ccc(Cl)cc2)c2sccc2N1` , result: 97.7

====

Tested on: NCI-H226 lung
Experiment: NCI-60 one-dose screen, 48 h (100 = growth as untreated, 0 = no growth, -100 = all killed)
Details: 10 µM unless noted
About 83,000 compounds went through this panel and 20% of them were active in at least one assay; those are over-represented in the sample as a whole.
Recorded growth, one value per entry.
Expressed in %, but write only the number.

Worked set:
CCC(O)(CN)c1ccccc1 (configuration not stated)
92.4
CNCc1cccnc1
101
COc1cc(/C=C/[N+](=O)[O-])c([N+](=O)[O-])cc1OC
16.1

// growth lookup, compound = `C[C@]12CCc3sc(-c4ccccc4O)nc3C1=CC[C@@H]1[C@@H]2CC[C@]2(C)C(=O)CC[C@@H]12` , result: 108

// growth lookup, compound = `C[C@]12CCc3nc(Nc4ccccc4F)sc3C1=CC[C@@H]1[C@@H]2CC[C@]2(C)C(=O)CC[C@@H]12` , result: 85.9

// growth lookup, compound = `CC(C)=CCC/C(C)=C/C=N\N=C(/N)N[N+](=O)[O-]` , result: 99.3

This collection of values is drawn from PubChem BioAssay (NCI).
